Read-out: Potassium channel subfamily K member 1 (KCNK1), KCNK1 (gene 3775)
Assay: LTEA_HepaRG_KCNK1: Life Technologies and Expression Analysis (LTEA) Assay for Potassium channel subfamily K member 1 (KCNK1) using HepaRG (AID 2283511)
Settings: mRNA level, 48 h; actives raise or lower the signal
Protocol: LTEA_HepaRG is a cell based, multiplexed-readout assay that uses HepaRG, a human liver cell line, with measurements taken at 48 hours after chemical dosing on a 96-well plate.LTEA_HepaRG_KCNK1 is one of 102 assay component(s) measured in the LTEA HepaRG cell culture assay. It is a marker of Hyperplasia.Data from the assay component LTEA_HepaRG_KCNK1 was analyzed into 1 endpoint. […]
Active and inactive are the calls of the source. Rule for the calls: active = hit-call score of the fitted dose curve at least 0.9, where 1 is the maximum; inactive = score below 0.9.
Labels: active, inactive

- COMPOUND: "C#CC(C)(C)NC(=O)c1cc(Cl)cc(Cl)c1"
  CLASS NAME: "inactive"
- COMPOUND: "CCCSP(=O)(OCC)SCCC"
  CLASS NAME: "inactive"
- COMPOUND: "CN(C)C(=O)Nc1cccc(C(F)(F)F)c1"
  CLASS NAME: "inactive"
- COMPOUND: "CON=C(C(=O)OC)c1ccccc1CON=C(C)c1cccc(C(F)(F)F)c1"
  CLASS NAME: "inactive"
- COMPOUND: "CC1(C(=O)Nc2ccc(O)c(Cl)c2Cl)CCCCC1"
  CLASS NAME: "inactive"
- COMPOUND: "C#CCC1=C(C)C(OC(=O)C2C(C=C(C)C)C2(C)C)CC1=O (stereo not drawn)"
  CLASS NAME: "inactive"
- COMPOUND: "CCc1cccc(CC)c1N(COC)C(=O)CCl"
  CLASS NAME: "inactive"
- COMPOUND: "COP(=O)(OC)C(O)C(Cl)(Cl)Cl (stereo not drawn)"
  CLASS NAME: "inactive"
- COMPOUND: "CC[C@H](C)[C@H]1O[C@]2(C=C[C@@H]1C)C[C@@H]1C[C@@H](C/C=C(\\C)[C@@H](O[C@H]3C[C@H](OC)[C@@H](O[C@H]4C[C@H](OC)[C@@H](NC)[C@H](C)O4)[C@H](C)O3)[C@@H](C)/C=C/C=C3\\CO[C@@H]4[C@H](O)C(C)=C[C@@H](C(=O)O1)[C@]34O)O2"
  CLASS NAME: "active"
- COMPOUND: "CNc1cnn(-c2cccc(C(F)(F)F)c2)c(=O)c1Cl"
  CLASS NAME: "inactive"
- COMPOUND: "CNC(=O)Oc1cccc2c1OC(C)(C)O2"
  CLASS NAME: "inactive"
- COMPOUND: "C[N+]1(C)CCCCC1"
  CLASS NAME: "inactive"
- COMPOUND: "Cc1cc(C2CC2)nc(Nc2ccccc2)n1"
  CLASS NAME: "inactive"
- COMPOUND: "CC(C1CC1)C(O)(Cn1cncn1)c1ccc(Cl)cc1 (stereo not drawn)"
  CLASS NAME: "inactive"
- COMPOUND: "COc1cccc(C(=O)NN(C(=O)c2cc(C)cc(C)c2)C(C)(C)C)c1C"
  CLASS NAME: "inactive"
- COMPOUND: "CN(C)[C@@H]1C(=O)C(C(N)=O)=C(O)[C@@]2(O)C(=O)C3=C(O)c4c(O)cccc4[C@@](C)(O)[C@H]3[C@H](O)[C@@H]12"
  CLASS NAME: "inactive"
- COMPOUND: "CSc1nnc(C(C)(C)C)c(=O)n1N"
  CLASS NAME: "inactive"
- COMPOUND: "Nc1c(Cl)cc([N+](=O)[O-])cc1Cl"
  CLASS NAME: "inactive"

* * *

read-out: TIMP metallopeptidase inhibitor 2 (TIMP2), TIMP2 (gene 7077); experiment: BSK_KF3CT_TIMP2: BioMAP Diversity Plus: KF3CT Assay for TIMP metallopeptidase inhibitor 2 (TIMP2) Biomarker Activity (AID 2283071); conditions: primary human keratinocytes with fibroblasts; actives raise or lower the signal
Calls of active or inactive are those of the source. Rule for the calls: active = hit-call score of the fitted dose curve at least 0.9, where 1 is the maximum; inactive = score below 0.9.
Labels: true for active, false for inactive

- COMPOUND: "CCOP(=S)(OCC)OC(Cl)C(Cl)(Cl)Cl (configuration not stated)"
  CLASS NAME: "false"
- COMPOUND: "O=c1ccc(=O)[nH][nH]1"
  CLASS NAME: "false"
- COMPOUND: "FC(F)C(F)(F)OCC(Cn1cncn1)c1ccc(Cl)cc1Cl (configuration not stated)"
  CLASS NAME: "false"
- COMPOUND: "COc1cc(OC)nc(Sc2cccc(Cl)c2C(=O)O)n1"
  CLASS NAME: "false"
- COMPOUND: "CCCOCC(=Nc1ccc(Cl)cc1C(F)(F)F)n1ccnc1"
  CLASS NAME: "true"
- COMPOUND: "COP(=O)(NC(C)=O)SC (configuration not stated)"
  CLASS NAME: "false"
- COMPOUND: "N#CSCSC#N"
  CLASS NAME: "true"
- COMPOUND: "CCOP(=S)(OCC)Oc1ccc([N+](=O)[O-])cc1"
  CLASS NAME: "false"
- COMPOUND: "COc1cccc(C(=O)NN(C(=O)c2cc(C)cc(C)c2)C(C)(C)C)c1C"
  CLASS NAME: "false"
- COMPOUND: "CN(C)NC(=O)CCC(=O)O"
  CLASS NAME: "false"
- COMPOUND: "CSC1=N[C@@](C)(c2ccccc2)C(=O)N1Nc1ccccc1"
  CLASS NAME: "false"
- COMPOUND: "CCOP(=S)(Oc1cnc(C(C)(C)C)nc1)OC(C)C (configuration not stated)"
  CLASS NAME: "true"
- COMPOUND: "S=C1NCCN1"
  CLASS NAME: "false"
- COMPOUND: "CCNc1nc(Cl)nc(NC(C)(C)C#N)n1"
  CLASS NAME: "false"
- COMPOUND: "CC(C1CC1)C(O)(Cn1cncn1)c1ccc(Cl)cc1 (configuration not stated)"
  CLASS NAME: "false"
- COMPOUND: "C[Si](Cn1cncn1)(c1ccc(F)cc1)c1ccc(F)cc1"
  CLASS NAME: "false"
- COMPOUND: "COc1ccc(C(=CC(=O)N2CCOCC2)c2ccc(Cl)cc2)cc1OC"
  CLASS NAME: "false"
- COMPOUND: "CN(C)[C@@H]1C(=O)C(C(N)=O)=C(O)[C@@]2(O)C(=O)C3=C(O)c4c(O)cccc4[C@@](C)(O)[C@H]3[C@H](O)[C@@H]12"
  CLASS NAME: "false"
- COMPOUND: "CC1(C(=O)Nc2ccc(O)c(Cl)c2Cl)CCCCC1"
  CLASS NAME: "false"
- COMPOUND: "CNC(=O)ON=C(SC)C(=O)N(C)C"
  CLASS NAME: "false"
- COMPOUND: "CCC(=NOC/C=C/Cl)C1=C(O)CC(C2CCOCC2)CC1=O (configuration not stated)"
  CLASS NAME: "false"
- COMPOUND: "O=C(O)c1cc(Oc2ccc(C(F)(F)F)cc2Cl)ccc1[N+](=O)[O-]"
  CLASS NAME: "false"

* * *

Read-out: growth arrest and DNA damage 45 (GADD45A), GADD45A (gene 1647)
Assay: LTEA_HepaRG_GADD45A: Life Technologies and Expression Analysis (LTEA) Assay for growth arrest and DNA damage 45 (GADD45A) using HepaRG (AID 2283458)
Settings: mRNA level, 48 h; actives raise or lower the signal
Procedure: LTEA_HepaRG is a cell based, multiplexed-readout assay that uses HepaRG, a human liver cell line, with measurements taken at 48 hours after chemical dosing on a 96-well plate.LTEA_HepaRG_GADD45A is one of 102 assay component(s) measured in the LTEA HepaRG cell culture assay. It is a marker of Oxidative Stress.Data from the assay component LTEA_HepaRG_GADD45A was analyzed into 1 endpoint. […]
Activity calls are given as the source filed them. How the source made its calls: active means hit-call score of the fitted dose curve at least 0.9, where 1 is the maximum; inactive means score below 0.9.
Labels: yes (1) = active, no (0) = inactive

- COMPOUND: "CCCCSP(=O)(SCCCC)SCCCC"
  CLASS NAME: "no (0)"
- COMPOUND: "COP(=O)(OC)C(O)C(Cl)(Cl)Cl (stereo not drawn)"
  CLASS NAME: "yes (1)"
- COMPOUND: "COc1cc(OC)nc(Sc2cccc(Cl)c2C(=O)O)n1"
  CLASS NAME: "no (0)"
- COMPOUND: "CCOP(=O)(OCC)Oc1cc(C)nc(C(C)C)n1"
  CLASS NAME: "no (0)"
- COMPOUND: "CCC(=NOC/C=C/Cl)C1=C(O)CC(C2CCOCC2)CC1=O (stereo not drawn)"
  CLASS NAME: "no (0)"
- COMPOUND: "O=[N+]([O-])c1cc(C(F)(F)F)c(Cl)c([N+](=O)[O-])c1Nc1ncc(C(F)(F)F)cc1Cl"
  CLASS NAME: "yes (1)"
- COMPOUND: "CCOP(=O)(SC(C)CC)N1CCSC1=O (stereo not drawn)"
  CLASS NAME: "no (0)"
- COMPOUND: "N#CSCSC#N"
  CLASS NAME: "no (0)"
- COMPOUND: "CCOP(=S)(OCC)SCCSCC"
  CLASS NAME: "no (0)"
- COMPOUND: "CNc1cnn(-c2cccc(C(F)(F)F)c2)c(=O)c1Cl"
  CLASS NAME: "no (0)"
- COMPOUND: "Cc1ccn2nc(S(=O)(=O)Nc3c(F)cccc3F)nc2n1"
  CLASS NAME: "no (0)"
- COMPOUND: "C[Si](Cn1cncn1)(c1ccc(F)cc1)c1ccc(F)cc1"
  CLASS NAME: "no (0)"
- COMPOUND: "S=C1NCCN1"
  CLASS NAME: "no (0)"
- COMPOUND: "CCOC(=O)COc1cc(-c2nn(C)c(OC(F)F)c2Cl)c(F)cc1Cl"
  CLASS NAME: "no (0)"
- COMPOUND: "CC(C)N(C(=O)SCC(Cl)=C(Cl)Cl)C(C)C"
  CLASS NAME: "no (0)"
- COMPOUND: "Cc1cc(C2CC2)nc(Nc2ccccc2)n1"
  CLASS NAME: "no (0)"
- COMPOUND: "COc1cccc(C(=O)NN(C(=O)c2cc(C)cc(C)c2)C(C)(C)C)c1C"
  CLASS NAME: "no (0)"
- COMPOUND: "COc1ccc(C(=CC(=O)N2CCOCC2)c2ccc(Cl)cc2)cc1OC"
  CLASS NAME: "no (0)"
- COMPOUND: "CN(C)C(=O)Nc1cccc(C(F)(F)F)c1"
  CLASS NAME: "yes (1)"
- COMPOUND: "CC(Oc1cccc(Cl)c1)C(=O)O (stereo not drawn)"
  CLASS NAME: "no (0)"
- COMPOUND: "CCCCOC(=O)[C@@H](C)Oc1ccc(Oc2ccc(C#N)cc2F)cc1"
  CLASS NAME: "no (0)"
- COMPOUND: "Nc1nc(N)nc(NC2CC2)n1"
  CLASS NAME: "no (0)"
- COMPOUND: "C#CCC1=C(C)C(OC(=O)C2C(C=C(C)C)C2(C)C)CC1=O (stereo not drawn)"
  CLASS NAME: "no (0)"
- COMPOUND: "CNC(=O)ON=C(SC)C(=O)N(C)C"
  CLASS NAME: "no (0)"
- COMPOUND: "CCCCN(CC)c1c([N+](=O)[O-])cc(C(F)(F)F)cc1[N+](=O)[O-]"
  CLASS NAME: "no (0)"
- COMPOUND: "CON=C(C(=O)OC)c1ccccc1CON=C(C)c1cccc(C(F)(F)F)c1"
  CLASS NAME: "no (0)"
- COMPOUND: "CN(C)[C@@H]1C(=O)C(C(N)=O)=C(O)[C@@]2(O)C(=O)C3=C(O)c4c(O)cccc4[C@@](C)(O)[C@H]3[C@H](O)[C@@H]12"
  CLASS NAME: "no (0)"
- COMPOUND: "CCCSP(=O)(OCC)SCCC"
  CLASS NAME: "no (0)"
- COMPOUND: "COP(=O)(NC(C)=O)SC (stereo not drawn)"
  CLASS NAME: "no (0)"
- COMPOUND: "CC[C@H](C)[C@H]1O[C@]2(C=C[C@@H]1C)C[C@@H]1C[C@@H](C/C=C(\\C)[C@@H](O[C@H]3C[C@H](OC)[C@@H](O[C@H]4C[C@H](OC)[C@@H](NC)[C@H](C)O4)[C@H](C)O3)[C@@H](C)/C=C/C=C3\\CO[C@@H]4[C@H](O)C(C)=C[C@@H](C(=O)O1)[C@]34O)O2"
  CLASS NAME: "no (0)"
- COMPOUND: "CCCSP(=O)(OCC)Oc1ccc(Br)cc1Cl (stereo not drawn)"
  CLASS NAME: "no (0)"
- COMPOUND: "CCc1cnc(C2=NC(C)(C(C)C)C(=O)N2)c(C(=O)O)c1 (stereo not drawn)"
  CLASS NAME: "no (0)"
- COMPOUND: "O=c1ccc(=O)[nH][nH]1"
  CLASS NAME: "no (0)"

Origin of values: PubChem BioAssay (EPA / NIEHS)
